B1: CROP (parent)
chain: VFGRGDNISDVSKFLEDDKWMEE

# Variants of: B1
# assayInfo: protein stability index of a GFP-peptide fusion (GPS, HEK-293T) (PSI 1-6); higher = more stable;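 further: lentivirally expressed fusions sorted by FACS into six bins by GFP to DsRed ratio, PSI derived from sequencing read proportions per bin multiplied by bin number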
# conditionsUsed: c terminus: native
metric: protein stability index
Reply with just the number.

Solved cases (4 shown):
V1D = 3.13
I8N = 1.44
E23H = 4.53
F14D = 3.96

// query protein stability index value for entry `R4L` 1.98

// query protein stability index value for entry `I8M` 2.05

// query protein stability index value for entry `I8S` 2.48

// query protein stability index value for entry `N7V` 1.53

// query protein stability index value for entry `F14Y` 2.03

Measured values drawn from the supplement of paper PMC10567573 for this set.
